System: HCT-116
Method description: NCI tumour cell line growth inhibition, 48 h
Active and inactive are the calls of the source. Rule as the data show it: active = GI50 up to about 1.1 µM and inactive = higher.
Measured metric: GI50

INSERT INTO measurements (molecule, result) VALUES
  ('COC(=O)C1CCC(=O)N1CN(C(C)=O)c1ccccc1Cl (stereo not drawn)', '> 100 µM (inactive)'),
  ('CC/C(=C(\c1ccccc1)c1ccc(OCC[N+](C)(C)C)cc1)c1ccccc1 [TAMOXIFEN METHYL IODIDE]', '17.5 µM (inactive)'),
  ('O=C1C=C2CC[C@H]3[C@@H]4CC[C@H](Oc5c6ccccc6nc6ccccc56)[C@H]4CC[C@@H]3[C@H]2CC1', '37.1 µM (inactive)'),
  ('C#CCn1ncc2c(SCc3ccccc3)ncnc21', '62.8 µM (inactive)'),
  ('COc1ccc(/C(Cl)=C(\C=O)c2ccc(Cl)c(Cl)c2)cc1OC', '4.18 µM (inactive)'),
  ('C#CC(C)(C)Oc1cc(OC)c2c(=O)c3ccccc3n(C)c2c1', '17.4 µM (inactive)'),
  ('CC1CC(Br)C(=O)O1 (stereo not drawn)', '> 100 µM (inactive)'),
  ('CCn1c2ccccc2c2cc(NC(=O)c3c(C)[nH]c(=O)[nH]c3=S)ccc21', '43.3 µM (inactive)'),
  ('O=c1nc(-c2ccccc2)c2c3c(cccn13)CCC2', '> 100 µM (inactive)'),
  ('NNc1nc2ccccc2s1', '> 100 µM (inactive)'),
  ('CC/C(Cl)=N\OC(=O)Nc1ccc(OC)c(C)c1', '12.6 µM (inactive)'),
  ('CN1C(=O)c2ccccc2NC(=O)C12O[C@@H]2c1ccccc1 (stereo partly drawn)', '> 100 µM (inactive)'),
  ('C/C=C1\Oc2ccc(OC)cc2S1(=O)=O', '> 100 µM (inactive)');

====

Tested on: OVCAR-3
Method description: NCI tumour cell line growth inhibition, 48 h
Calls of active or inactive are those of the source. Cut-off read from the data, not from the text of the source: active = GI50 up to about 1.1 µM and inactive = higher.
Measured metric: GI50

INSERT INTO measurements (molecule, measured_metric, result) VALUES
  ('O=c1c2ccccc2[nH]c2c(O)ccc(O)c12', 'GI50', '16.6 µM (inactive)'),
  ('C=Cc1ccccc1C1(O)C=CC(OC)(OC)C=C1', 'GI50', '3.05 µM (inactive)'),
  ('Cc1cn(C2CC(O)C(Cn3nncc3Cn3ccc(=O)[nH]c3=O)O2)c(=O)[nH]c1=O (stereo unspecified)', 'GI50', '> 100 µM (inactive)'),
  ('CC(C)C1=C2CCC3(C)C(CCC4C5C6OCC5(CCC6(C)C)CCC43C)C2(C)CC1 (stereo unspecified)', 'GI50', '21.3 µM (inactive)'),
  ('CN1C(=O)c2ccccc2OC12C=Cc1ccc(O)cc1O2 (stereo unspecified)', 'GI50', '17.1 µM (inactive)'),
  ('O=C(CNc1ccccn1)Nn1cnc2ccc(S(=O)(=O)Nc3ccccn3)cc2c1=O', 'GI50', '> 100 µM (inactive)');

====

Tested on: HOP-92
Method description: NCI tumour cell line growth inhibition, 48 h
Active and inactive are the calls of the source. Cut-off read from the data, not from the text of the source: active = GI50 up to about 1.1 µM and inactive = higher.
Possible outcomes: active, inactive

INSERT INTO measurements (compound, classification) VALUES
  ('COc1ccc2c(c1)C(=O)CCc1cc(OC)c(OC)c(OC)c1-2', 'active'),
  ('C=CCOC(=O)CC[C@H](NC(=O)[C@@H](CCC(F)(F)F)Cc1ccc(O)cc1)C(=O)OCC=C', 'inactive'),
  ('COc1cc(/C=C2/SC(c3ccccc3)N(c3ccccc3)C2=O)cc(OC)c1OC (stereo not given)', 'inactive'),
  ('O=C(CCc1cc(-c2ccco2)n(-c2ccc([N+](=O)[O-])cc2[N+](=O)[O-])n1)Nc1ccccc1', 'inactive'),
  ('Cc1nc(-n2nc(-c3ccccc3)cc2-c2ccccc2)sc1C(/C=C/c1ccc([N+](=O)[O-])cc1)=N/NC(N)=S', 'inactive'),
  ('CCCC/C=C1\CCC(CN2CCCCC2)C1=O (stereo not given)', 'inactive'),
  ('[N-]=[N+]=Nc1ccccc1-[n+]1noc([O-])c1Br', 'inactive'),
  ('COc1cc2c3cc1Oc1c(OC)c(OC)cc4c1C(Cc1ccc(cc1)Oc1cc(ccc1O)CC3N(C)CC2)N(C)CC4 (stereo not given)', 'inactive'),
  ('O=c1[nH]c(N/N=C\C(=N/Nc2nc3ccccc3c(=O)[nH]2)C(O)C(O)C(O)CO)nc2ccccc12 (stereo not given)', 'inactive'),
  ('O=C1C=CC(=O)[C@H]2C3C=CC(C4C3C3(Cl)C(Cl)=C(Cl)[C@]4(Cl)C3(Cl)Cl)[C@@H]12 (stereo not given in full)', 'inactive'),
  ('Cc1cc(=O)cc2sc3c(C)cccc3nc1-2', 'inactive'),
  ('N#CC1(C#N)C2C=CC(c3coc4cccc2c34)C1(C#N)C#N (stereo not given)', 'inactive'),
  ('COc1cc2c(c(OC)c1OC)-c1ccc(SC)cc1C(O)CC2 (stereo not given)', 'inactive'),
  ('COC(=O)C1CCC(=O)N1CN(C(C)=O)c1ccccc1Cl (stereo not given)', 'inactive'),
  ('COCCN(C(=O)c1ccccc1)C1CCC2(SCCS2)c2[nH]c3ccccc3c21 (stereo not given)', 'inactive');

====

Tested on: OVCAR-3
Method description: NCI tumour cell line growth inhibition, 48 h
Active and inactive are the calls of the source. Cut-off read from the data, not from the text of the source: active = GI50 up to about 1.1 µM and inactive = higher.
Measured metric: GI50

INSERT INTO results (smiles_record, result) VALUES
  ('COc1cc(/C=C/C(=O)c2sc(-n3nc(-c4ccccc4)cc3-c3ccccc3)nc2C)ccc1O', '> 100 µM (inactive)'),
  ('O=CN/C=C/c1ccccc1', '> 100 µM (inactive)'),
  ('CCOC(=O)c1cc2c3c(c(O)c(OC)c2s1)N(C(=O)c1cc2c4c(c(O)c(OC)c2s1)N(C(C)=O)CC4)CC3', '24.4 µM (inactive)');

====

System: SK-MEL-2
Method description: NCI tumour cell line growth inhibition, 48 h
Calls of active or inactive are those of the source. Cut-off read from the data, not from the text of the source: active = GI50 up to about 1.1 µM and inactive = higher.
Measured metric: GI50

INSERT INTO assay_data (molecule, result) VALUES
  ('CC/C(Cl)=N\OC(=O)Nc1ccc(OC)c(C)c1', '19 µM (inactive)'),
  ('O=C(CNc1ccccn1)Nn1cnc2ccc(S(=O)(=O)Nc3ccccn3)cc2c1=O', '> 100 µM (inactive)'),
  ('NC(=O)C(C(N)=O)=C(O)/C(O)=C/C(=O)c1ccccc1', '> 100 µM (inactive)'),
  ('N#C/N=C1/c2ccccc2/C(=N/C#N)c2cc(CO)ccc21', '61.2 µM (inactive)'),
  ('O/N=N/c1ccccn1.OCC1OC2OC3C(CO)OC(OC4C(CO)OC(OC5C(CO)OC(OC6C(CO)OC(OC7C(CO)OC(OC1C(O)C2O)C(O)C7O)C(O)C6O)C(O)C5O)C(O)C4O)C(O)C3O (stereo not given)', '56.9 µM (inactive)');

====

System: CCRF-CEM
Method description: NCI tumour cell line growth inhibition, 48 h
Activity calls are given as the source filed them. Rule as the data show it: active = GI50 up to about 1.1 µM and inactive = higher.
# GI50 per record follows
Measured metric: GI50

INSERT INTO measurements (molecule, result) VALUES
  ('O=C(O)/C=C\C(=O)Nc1ccc2c(c1)-c1ccccc1C2', '56.8 µM (inactive)'),
  ('N#Cc1nc(-c2cnccn2)oc1N', '> 100 µM (inactive)'),
  ('CC(C)(C)n1c(=O)[nH]n(C2NN=Cc3cccc4cccc2c34)c1=O (stereo not given)', '11.5 µM (inactive)'),
  ('COc1cccc2c1C1(O)C2CCCC12OCCCO2 (stereo not given)', '> 100 µM (inactive)'),
  ('C=C(CN(CC(=C)C(=O)c1ccccc1)C(C)(C)C)C(=O)c1ccccc1', '1.5 µM (inactive)');

====

Tested on: HOP-62
Method description: NCI tumour cell line growth inhibition, 48 h
Active and inactive are the calls of the source. No stated cut-off is given here; in the data, active = GI50 up to about 1.1 µM and inactive = higher.
Possible outcomes: label 1 (active), label 0 (inactive)

INSERT INTO assay_data (compound, classification) VALUES
  ('COc1cc(S(=O)(=O)Nc2ccc(-c3csc(N4C(=O)CSC4c4cccc(Oc5ccccc5)c4)n3)cc2)ccc1Cl (configuration not stated)', 'label 0'),
  ('CC12N=NNC1C(=O)NC2=O (configuration not stated)', 'label 0'),
  ('O=C1/C(=C/c2ccc(Cl)cc2)CCC1CCN1CCOCC1 (configuration not stated)', 'label 0'),
  ('CC(C)C1=C2CCC3(C)C(CCC4C5C6OCC5(CCC6(C)C)CCC43C)C2(C)CC1 (configuration not stated)', 'label 0'),
  ('COc1ccc(C(O)C(c2ccc(OCc3ccccc3)cc2)c2ccc(OCc3ccccc3)cc2)cc1 (configuration not stated)', 'label 0'),
  ('CS(=O)(=O)c1nc(Cl)c(Cl)c(C#N)c1Cl', 'label 0'),
  ('CC(C)(C)N(Cc1ccccc1)C(=O)/C=C\[S+]([O-])c1ccccc1 (configuration not stated)', 'label 0'),
  ('CCCCCCCCCCCCCCCC(=O)OCC1OC(N2C(=O)/C(=N\NC(N)=S)c3ccc([N+](=O)[O-])cc32)C(OC(C)=O)C1OC(C)=O (configuration not stated)', 'label 0'),
  ('CC(C)=NNc1ncnc2[nH]cnc12', 'label 0'),
  ('CC(=O)c1ccc(Nc2c3ccccc3nc3occc23)cc1', 'label 1'),
  ('OCC12C3C4C1C1C2C3C41CO (configuration not stated)', 'label 0'),
  ('O=c1c2cc(-c3ccccc3)sc2nc2n1N=C(c1ccc(Cl)cc1)CS2', 'label 0'),
  ('O=C(O/N=C1/CCC/C1=C\c1ccccc1)c1ccc(Cl)cc1', 'label 0'),
  ('CC(C)[C@@H]1ON1C(C)c1ccccc1 (some centres not stated)', 'label 0'),
  ('CN1CC2(CCCCC2)C(O)C12C=CCCC2 (configuration not stated)', 'label 0'),
  ('O=C1Nc2ccc(S(=O)(=O)O)cc2/C1=N/Nc1ccccc1[N+](=O)[O-]', 'label 0'),
  ('Cc1cc2c(=O)cc(-c3ccc(O)cc3)oc2c(C(=O)O)c1C', 'label 0');
